- System: SW-620
- experimentSummary: NCI tumour cell line growth inhibition, 48 h
Calls of active or inactive are those of the source. Cut-off read from the data, not from the text of the source: active = GI50 up to about 1.1 µM and inactive = higher.
Outcomes you can answer with include only these: active, inactive

Qu. Outcome? N#Cc1nn(-c2ccc(Cl)cc2)c(=N)c2c(N)n3nc(-c4ccccc4)cc3nc12
Ans. inactive

Qu. Which result was noted for this molecule in the test: COc1ccc(/C=C(\C#N)c2nc(-c3cc4ccccc4oc3=O)cs2)cc1
Ans. inactive

Qu. Please share the test call associated with CC[C@@H]1CN(C)[C@H]2Cc3c([nH]c4ccccc34)C(=O)C[C@H]1C2C(=O)OC (stereo not given in full) .
Ans. inactive

Qu. // return assay outcome for CN1CCN=C1c1nnn(-c2ccc([N+](=O)[O-])cc2)c1-c1ccccc1
Ans. inactive

Qu. Any idea what this test logged for Cc1ccc2c(=O)c(C(=O)Nn3c(C)csc3=S)c[nH]c2n1 ?
Ans. inactive

###

- Test system: SK-OV-3
- experimentSummary: NCI tumour cell line growth inhibition, 48 h
Active and inactive are the calls of the source. Rule as the data show it: active = GI50 up to about 1.1 µM and inactive = higher.
measurementKind: GI50

compound	measurementKind	result
Cc1n[nH]c(C(F)(F)F)c1/N=N/N(C)C	GI50	12.5 µM (inactive)

Qu. Provide only the value of recorded GI50 for COc1cc(N(CCC#N)CCC#N)ccc1C(/N=N/c1ccccc1C)=N\NC(=O)c1ccc(C)cc1
Ans. > 100 µM (inactive)

Qu. Please supply the value of reported GI50 for the item COC(=O)C1CCC(=O)N1C(c1ccc2c(c1)OCO2)c1cc(OC)c(OC)c(OC)c1 (stereo not given)
Ans. > 100 µM (inactive)

Qu. Give recorded GI50. O=C1c2ccccc2C(=O)c2cc(/N=N/c3c(O)ccc4ccccc34)ccc21
Ans. > 100 µM (inactive)

Qu. Input OCCOCCN1CCN(c2nc(N3CCCC3)c3nc(Cl)c(NCc4ccccc4)nc3n2)CC1 , output reported GI50.
Ans. 17.2 µM (inactive)

Qu. Fill in reported GI50 for this entry: O=[N+]([O-])c1ccc(Sc2c3ccccc3nc3cc(Cl)ccc23)cc1
Ans. > 10 µM (inactive)

Qu. Specify GI50 for OCc1c(-c2cccc3ccccc23)sc(-c2cccc3ccccc23)c1CO and stop.
Ans. 15.2 µM (inactive)

Qu. Annotate the compound CCOP(=O)(OCC)/C(C#N)=C/c1cc(O)ccc1O with its measured GI50.
Ans. > 100 µM (inactive)

Qu. Please indicate GI50 recorded for N#Cc1c(N)nc2c(C#N)c(N)cc3c2c1Oc1ccccc1-3
Ans. > 100 µM (inactive)

Qu. Specify measured GI50 for COc1cc2c(cc1O)CC[C@@H]1C2CC[C@@]2(C)C1CC[C@@H]2O (stereo not given in full) .
Ans. 3.22 µM (inactive)

###

- System: SW-620
- experimentSummary: NCI tumour cell line growth inhibition, 48 h
Calls of active or inactive are those of the source. Cut-off read from the data, not from the text of the source: active = GI50 up to about 1.1 µM and inactive = higher.
Mark one answer only. Choices: Y = active, N = inactive

Some entries whose results are on file:
molecule	cat
CC1=C2C(=C[C@@](C)(CO)[C@@H]2O)C(=O)[C@](C)(O)C12CC2 [ILLUDIN]	Y
O=C(O)C(Cc1ccccc1)Cc1ccccc1	N
C#CCN(Cc1ccc2nc(-c3ccccc3)c(Cl)nc2c1)c1ccc(Cl)c(Cl)c1	N
O=S(=O)(F)Cc1ccccc1 [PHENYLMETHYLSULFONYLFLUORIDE]	N
O=c1c([Se]c2coc3ccccc3c2=O)coc2ccccc12	N
O=C1c2cccc(NCCCNCCO)c2C(=O)c2cccc(NCCCNCCO)c21	N

Qu. Could you please tell me the result logged for Nc1nc(Cl)c(N)c(NCC2(CO)CCC(OCc3ccccc3)C2)n1 (stereo unspecified) in this assay?
Ans. N

Qu. What was the test verdict on O=c1cc(-c2ccccc2)[nH]c2cccc(S)c12 ?
Ans. Y

Qu. Please indicate how the test categorized CN=S(=O)(C[C@]1(O)CC2OC1C1OC(C)(C)OC21)c1ccccc1 (stereo partly specified) .
Ans. N

Qu. Given COc1ccc2cc3c4cc(OC)c(OC)cc4ccn3c2c1 , state the outcome it received in this test.
Ans. N

Qu. // param item: CC(=O)Oc1ccc2c(c1)CC[C@@H]1C2[C@@H](O[N+](=O)[O-])C[C@@]2(C)C1CC[C@@H]2O (stereo partly specified) ; yields the recorded call
Ans. N

Qu. Per the assay record, what outcome was assigned to CN(/N=C/c1cccc2cccnc12)c1ccc([N+](=O)[O-])cc1[N+](=O)[O-] ?
Ans. N

Qu. How was CCCCCCCCCCCCCCCCCc1nc(C#N)c(N)o1 classified in this test?
Ans. N

Qu. Look up the recorded call for FC(F)(F)C1(C(F)(F)F)C2CCC3(CC(F)(F)C(F)(F)S3)C1C2 (stereo unspecified) in this test.
Ans. N
